Just for reference, the supplement of paper PMC11451515 is where these values come from.

System: SEM cells
Experiment: cell viability relative to DMSO control; higher = less cytotoxic
Details: RPMI 5 mM glucose + 10% FBS; 48 h; 15.4 µM
assayEndpoint: cell viability

compound=NC(=O)[C@@H](CCC(F)(F)F)N(Cc1ccc(-c2ncon2)cc1F)[S+](=O)([O-])c1ccc(Cl)cc1 assayendpoint="cell viability" valuemeasured=30%
compound=C\C1=N\N(C(=O)C1)C2=CC=CC=C2 assayendpoint="cell viability" valuemeasured=130%
compound=COc1cc([S+](C)(=O)[O-])ccc1Nc1nc2ccc(-c3ccc(NC(=O)[C@H](C)c4ccc(F)cc4)cc3)cn2n1 assayendpoint="cell viability" valuemeasured=34.6%
compound=CNC(=O)c1cc(Oc2ccc(NC(=O)Nc3ccc(Cl)c(C(F)(F)F)c3)c(F)c2)ccn1 assayendpoint="cell viability" valuemeasured=27.2%
compound=Cc1nc(C(=O)NCC(=O)O)c(O)c2ccc(Oc3ccccc3)cc12 assayendpoint="cell viability" valuemeasured=108%
compound="O=C1C(CCC(O)c2ccc(F)cc2)C(c2ccc(O)cc2)N1c1ccc(F)cc1 (stereo not drawn)" assayendpoint="cell viability" valuemeasured=98.8%
compound=O=C(O)C(=O)Nc1cccc(-c2nnn[nH]2)c1 assayendpoint="cell viability" valuemeasured=110%
compound=NNC(=O)c1ccncc1 assayendpoint="cell viability" valuemeasured=94.9%

* * *

System: NOMO1
Assay: cell viability relative to DMSO control; higher = less cytotoxic
Conditions: RPMI 5 mM glucose + 10% dialyzed FBS; 48 h; 5.12 µM
Entries and their cell viability values follow.
assayEndpoint: cell viability (%)

compound=CC(=O)[C@H]1CC[C@H]2[C@@H]3C/C=C4/C[C@@H](O)CC[C@]4(C)[C@H]3CC[C@]12C valuemeasured=118
compound=COCCNCCCn1c(C(=O)CF)c(-c2ccc(C)cc2)c2c(N)ncnc21 valuemeasured=83.7
compound="O=P1(NCCCl)OCCCN1CCCl (stereo not drawn)" valuemeasured=84.6
compound=NNC(=O)c1ccncc1 valuemeasured=124
compound="Cc1ccc([S+](=O)([O-])NC(=O)NN2CC3CCCC3C2)cc1 (stereo not drawn)" valuemeasured=110
compound=COC1=CC=CC(=C1/C2=N/CC3=C(N=C(NC4=CC(=C(C=C4)C(O)=O)OC)N=C3)C5=CC=C(Cl)C=C25)F valuemeasured=49
compound="Clc1ccc(C(Cn2ccnc2)OCc2ccc(Sc3ccccc3)cc2)c(Cl)c1 (stereo not drawn)" valuemeasured=124
compound=O=C(O)c1nn(Cc2ccc(Cl)cc2Cl)c2ccccc12 valuemeasured=83.2
compound=CNC(=O)c1ccccc1Sc1ccc2c(/C=C/c3ccccn3)n[nH]c2c1 valuemeasured=74.8
compound=COc1c(C)c2c(c(O)c1C/C=C(\C)CCC(=O)OCCN1CCOCC1)C(=O)OC2 valuemeasured=64.7
compound=O=C(O)C(=O)Nc1cccc(-c2nnn[nH]2)c1 valuemeasured=113
compound=CC(=O)O[C@@]12CO[C@@H]1C[C@H](O)[C@]3(C)[C@@H]2[C@H](OC(=O)C4=CC=CC=C4)[C@]5(O)C[C@H](O)/C(=C(/[C@@H](O)C3=O)C5(C)C)C valuemeasured=115
compound="O=C1C(CCC(O)c2ccc(F)cc2)C(c2ccc(O)cc2)N1c1ccc(F)cc1 (stereo not drawn)" valuemeasured=117
compound=CCc1nc(C(N)=O)c(Nc2ccc(N3CCC(N4CCN(C)CC4)CC3)c(OC)c2)nc1NC1CCOCC1 valuemeasured=57.5
compound=COc1cc([C@@H]2c3cc4c(cc3[C@H](O)[C@H]3COC(=O)[C@H]23)OCO4)cc(OC)c1OC valuemeasured=17.9
compound=CC[C@@H](C)[C@H](NC(=O)[C@H](CC1CCCCC1)NC(=O)c1ccno1)C(=O)N1CCC2(CCc3ccccc32)CC1 valuemeasured=82.6
compound=Cc1n[nH]c(C)c1Cc1sc2c(c1C(=O)N1C[C@H](O)CO1)c(=O)n(C)c(=O)n2CC(C)C valuemeasured=113
compound=COc1cc([S+](C)(=O)[O-])ccc1Nc1nc2ccc(-c3ccc(NC(=O)[C@H](C)c4ccc(F)cc4)cc3)cn2n1 valuemeasured=96.3
